Data origin: the supplement of paper PMC11451515

# Test system: P12-Ichikawa
# procedure-details: cell viability relative to DMSO control; higher = less cytotoxic
# assay-setup: RPMI 5 mM glucose + 10% FBS; 48 h; 46.1 µM

# smiles, value-unit, cell viability
records = [
    ("CC[C@@]1(O)C[C@H](O[C@H]2C[C@H](N(C)C)[C@H](O[C@H]3C[C@H](O)[C@H](O[C@H]4CCC(=O)[C@H](C)O4)[C@H](C)O3)[C@H](C)O2)c2c(cc3c(c2O)C(=O)c2c(O)cccc2C3=O)[C@H]1C(=O)OC", "%", 53.5),
    ("CN[S+](=O)([O-])CCc1ccc2[nH]cc(C3CCN(C)CC3)c2c1", "%", 101),
    ("O=C1CCc2ccc(OCCCCN3CCN(c4cccc(Cl)c4Cl)CC3)cc2N1", "%", 78.3),
    ("C[C@@H]1C[C@H]2[C@@H]3CC\\C4=C\\C(=O)\\C=C/[C@]4(C)[C@@]3(Cl)[C@@H](O)C[C@]2(C)[C@@]1(OC(=O)C5=CC=CO5)C(=O)CCl", "%", 40.2),
]
